# assay target: T1, Recombinant human IGF-I (insulin-like growth factor-I) (human, UniProt P05019 49-118)
# T1 construct: Bought; also called IGF1; IGF-1
# run description: limited antigen ELISA, supernatant 1:25
Parameter LA OD, IGF1 4 ng/ml: see the listing below.
Numbers only; they are read as OD 450 nm.

# binder, assay endpoint, value observed
rows = [
    ("mAb 7.251.3 (ATCC Accession Number PTA-7422) (antibody, V domains shown, Fully human, lambda light chain (V1-13/JL2)) VH: QVQLQESGPGLVKPSETLSLTCTVSGGSISSYYWSWIRQPPGKGLEWIGYFFYSGYTNYNPSLKSRVTISVDTSKNQFSLKLSSVTAADTAVYYCACITGTTKGGMDVWGQGTTVTVSS VL: QSVLTQPPSVSGAPGQRVTISCTGSSSNIGAGYDVHWYQQLPGTAPKLLIYGNNNRPSGVPDRFSGSKSGTSASLAITGLQADDEADYYCQSFDSSLSGSVFGGGTKLTVLG", "LA OD, IGF1 4 ng/ml", 1.31),
]

Query :: // query LA OD, IGF1 4 ng/ml value for entry mAb 7.159.2 (ATCC Accession Number PTA-7424) (antibody, V domains shown, Fully human, lambda light chain (V1-19/JL2); also called 7.159.1; 7_159_1) VH: QVQLVQSGAEVKKPGASVKVSCKASGYTFTSYDINWVRQATGQGLEWMGWMNPNSGNTGYAQKFQGRVTMTRNTSISTAYMELSSLRSEDTAVYYCARDPYYYYYGMDVWGQGTTVTVSS VL: QSVLTQPPSVSAAPGQKVTISCSGSSSNIENNHVSWYQQLPGTAPKLLIYDNNKRPSGIPDRFSGSKSGTSATLGITGLQTGDEADYYCETWDTSLSAGRVFGGGTKLTVLG
Result :: 0.98

Query :: // query LA OD, IGF1 4 ng/ml value for entry mAb 7.234.2 (antibody, V domains shown, also called 7.234.1; 7_234_1) VH: QLQLQESGPGLVKPSETLSLTCTVSGGSINSSSNYWGWIRQPPGKGLAWIGGIYYSGSTYYNPSLRSRVTMSVDTSKNQFSLKLSSVTAADTAVYYCARQRGHSSGWWYFDLWGRGTLVTVSS VL: DIQMTQSPSSVSASVGDRVTITCRASRGISSWLAWYQQRPGKAPKLLIYTASSLQSGVPSRFSGSGSGTDFTLTISSLQPEDFATYYCQQANSFPFTFGPGTKVDIKR
Result :: 1.79

Query :: // query LA OD, IGF1 4 ng/ml value for entry mAb 7.34.1 (ATCC Accession Number PTA-7423) (antibody, V domains shown, Fully human, lambda light chain (V1-13/JL2)) VH: QVQLQESGPGLVKPSETLSLTCTVSGGSISSYYWSWIRQPPGRGLEWIGYFFYSGYTNYNPSLKSRVTMSVDTSKNQFSLKLSSVTAADTAVYYCACITGTTKGGMDVWGQGATVTVSS VL: QSVLTQAPSVSGAPGQRVTISCTGRSSNIGAGYDVHWYQQFPGTAPKLLIYGNSNRPSGVPDRFSGSKSGTSASLAITGLQAEDEADYYCQSYDSSLSGSVFGGGTKLTVLG
Result :: 0.44

Query :: // query LA OD, IGF1 4 ng/ml value for entry mAb 7.158.2 (antibody, V domains shown, also called 7.158.1; 7_158_1) VH: QLQLQESGPGLVKPSETLSLTCTVSGGSIRSSSYYWGWIRQPPGKGLEWIGGIYYSGSTYYNPSLKSRVTMSVDTSKNQFSLKLSSVTAADTAVYYCARQRGHSSGWWYFDLWGRGTLVTVSS VL: DIQMTQSPSSVSASVGDSVTITCRASQGISSYLAWYQQKPGKAPKLLIYAASSLQSGVPSRFSGNGSGTDFTLTISSLQPEDFATYYCQQANNFPFTFGPGTKVDIKR
Result :: 3

The measurements presented in this section are drawn from patent US20070196376A1.
